Test system: Helicobacter pylori
method.summary: Minimum Inhibitory concentration against Helicobacter pylori
Format: functional
observed.property: MIC (µg/mL)
Report the value in µg/mL with no unit label.

>>> quantitative_result("O=C(NCc1cccnc1)c1cc(C(=O)Nc2ccccc2)n(-c2ccc(Cl)cc2)n1")
0.25

As a next step, examine the molecule that follows.
Data request, read-out MIC, for `O=C(NCc1cccnc1)c1cc(C(=O)Nc2ccc(N3CCCCC3)cc2)n(-c2ccc(Cl)cc2)n1`
2

---

We begin with a simple list: items and their reported MIC.
System: Helicobacter pylori
method.summary: Minimum Inhibitory concentration against Helicobacter pylori
Format: functional
Give just the number in µg/mL; leave the unit off.

Consider the following illustrative entries.
>>> quantitative_result("COc1ccc(-n2nc(C(=O)NCc3ccccc3)cc2C(=O)Nc2ccc(C(=O)N3CCCC3)cc2)cc1")
3
>>> quantitative_result("Cc1ccc(CNC(=O)c2cc(C(=O)Nc3ccccc3)n(-c3ccc(Cl)cc3)n2)cc1")
32
>>> quantitative_result("COc1ccc(-n2nc(C(=O)NCC(C)C)cc2C(=O)Nc2ccc(C(=O)N3CCCC3)cc2)cc1")
64

Query: MIC; subject: `COc1ccc(-n2nc(C(=O)NCc3cccnc3)cc2C(=O)Nc2ccccc2)cc1`
0.5

What MIC value was documented for this compound, `NC(=O)c1ccc(NC(=O)c2cc(C(=O)NCc3ccccc3)nn2-c2ccc(Cl)cc2)cc1` ?
8

// MIC lookup, key: `O=C(NCc1ccccc1)c1cc(C(=O)Nc2ccccc2)n(-c2ccc(Cl)cc2)n1`
0.125

---

Tested on: Helicobacter pylori
method.summary: Minimum Inhibitory concentration against Helicobacter pylori
Type: functional
observed.property: MIC

>>> result("COc1ccc(-n2nc(C(=O)NCC3CCCO3)cc2C(=O)Nc2ccc(C(=O)N3CCCC3)cc2)cc1 (centres undefined)")
"> 32 µg/mL"

# get_value(readout='MIC', item= `CC(C)CNC(=O)c1cc(C(=O)NCc2ccccc2)nn1-c1ccc(Cl)cc1` )
> 64 µg/mL

Would you mind telling me what MIC value was observed for `COc1ccc(-n2nc(C(=O)NC(c3ccccc3)c3ccccc3)cc2C(=O)NCc2ccccc2)cc1` ?
> 32 µg/mL

Find the recorded MIC belonging to `COc1ccc(-n2nc(C(=O)Nc3ccc(C(=O)N4CCCC4)cc3)cc2C(=O)NCc2ccccc2)cc1` and report it.
> 32 µg/mL
